Values from PubChem BioAssay (NCI)

Catalogue of TGI readings, one per entry.
system: KM12 colon; experiment: NCI tumour cell line growth inhibition, 48 h

Below: 5 compounds and their reported TGI.
COMPOUND: O=Cc1cccc2ccc3ccccc3c12
ENDPOINT_NAME: TGI
MEASURED: 25.4 µM
//
COMPOUND: OCc1ccc(-c2csc(-c3ccc(CO)o3)c2)o1
ENDPOINT_NAME: TGI
MEASURED: > 100 µM
//
COMPOUND: CNC(=O)c1nn(C)c2c1C(C)(C)Cc1cnc(Nc3cccc(N4CCN(C)CC4)c3)nc1-2
ENDPOINT_NAME: TGI
MEASURED: 3.43 µM
//
COMPOUND: Cc1c(C(=O)O)n2c(=S)[nH]nc2c2ccccc12
ENDPOINT_NAME: TGI
MEASURED: > 100 µM
//
COMPOUND: CC1=NN(C(=O)Cc2ccccc2)C(=O)/C1=C\c1ccc([N+](=O)[O-])cc1
ENDPOINT_NAME: TGI
MEASURED: > 100 µM

Entry Cn1cc(C2=C(c3c4n(c5ccccc35)CCNC4)C(=O)NC2=O)c2ccccc21 — recorded TGI = > 25 µM

Entry CC[C@@]1(O)C[C@H](OC2CC(N(C)C)C(O)C(C)O2)c2c(cc3c(c2O)C(=O)c2c(O)ccc(O)c2C3=O)[C@H]1C(=O)OC (some centres not stated) — recorded TGI = 1 µM

Entry CN(C)CN1CSC(=S)N(CN(C)C)C1 — recorded TGI = > 100 µM

Entry O=C1c2ccccc2C(=O)N1n1c(Cc2ccc(Cl)cc2)n[nH]c1=O — recorded TGI = > 100 µM

Entry CC(=O)OCC12CN(C#N)C3C4COC(CC41)C1(C(=O)N(C)c4ccccc41)C32 (configuration not stated) — recorded TGI = > 100 µM

Entry NC1N=Nc2ccccc21 (configuration not stated) — recorded TGI = > 100 µM

Entry COC(=O)C1=COC2OC3C(C(C)O)C(=O)OC34C=CC1C24 (configuration not stated) — recorded TGI = > 100 µM

###

tested on: LOX IMVI melanoma; assay: NCI tumour cell line growth inhibition, 48 h
ENDPOINT_NAME: TGI

Below: 4 compounds and their reported TGI.
COMPOUND: CC1CCCC(C(=O)CC2CC(=O)NC(=O)C2)C1=O (centres undefined)
TGI: > 100 µM
//
COMPOUND: CC(C)(C)COC(=O)C(C)(C)NC(=O)C(CC(=O)OCc1ccccc1)NC(=O)OCc1ccccc1 (centres undefined)
TGI: > 100 µM
//
COMPOUND: COC1=CC(c2ccc[nH]2)=N/C1=C\c1[nH]c(C)c(C(=O)CCC(=O)Oc2ccc3c(c2)CCC2C3CC[C@]3(C)[C@@H](O)CC[C@@H]23)c1C (some centres undefined)
TGI: 2.57 µM
//
COMPOUND: CC(=O)OCC1OC(n2cnc3nc(Br)[nH]c(=O)c32)C(OC(C)=O)C1OC(C)=O (centres undefined)
TGI: > 100 µM

Entry N#CCCN(CCC#N)c1ccc(/C=C(/NC(=O)c2cc([N+](=O)[O-])ccc2Cl)C(=O)NN)cc1 — recorded TGI = > 100 µM

Entry CN(C)Cc1c(O)ccc2c1c1c(n2C)C(=O)c2ccccc2C1=O — recorded TGI = 18.6 µM

Entry CCC(=O)Nc1cccc(N=Cc2ccc(OC(=O)/C=C\c3ccccc3)cc2)c1 — recorded TGI = > 75 µM

Entry CCOC(=O)/C=C/C(=O)O/C=C/[N+](=O)[O-] — recorded TGI = > 100 µM

Entry O=C(C=Nc1ccccc1C(=O)[O-])c1cccs1.O=C(C=Nc1ccccc1C(=O)[O-])c1cccs1.[Ni+2] — recorded TGI = > 100 µM
